Target: T1, human interleukin-23 receptor (IL23R) (human, UniProt Q5VWK5 24-355, limits assumed)
T1 construct: also called human IL23R
T1 sequence (looked up): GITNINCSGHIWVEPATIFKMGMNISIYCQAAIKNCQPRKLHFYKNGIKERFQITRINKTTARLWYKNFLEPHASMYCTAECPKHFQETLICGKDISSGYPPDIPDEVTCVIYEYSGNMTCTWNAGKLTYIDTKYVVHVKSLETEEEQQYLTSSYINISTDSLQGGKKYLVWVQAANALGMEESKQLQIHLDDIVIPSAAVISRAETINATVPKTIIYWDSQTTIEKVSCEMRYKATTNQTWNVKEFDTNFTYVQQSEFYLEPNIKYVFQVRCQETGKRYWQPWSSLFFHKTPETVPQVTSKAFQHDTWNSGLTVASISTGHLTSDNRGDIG
Assay: SPR, scFv
pKd: −log10 of the molar value.
observed property: pKd

[[record]]
binder = "Vκ2/VH3 consensus (uncapped), human IL23R specific scFv (scFv, scFv VL-linker-VH, made in E. coli; Vκ framework IV (uncapped, full consensus); also called Vκ2VH3 uncapped) scFv: DIVMTQSPLSLPVTPGEPASISCQASENIYSFLAWYLQKPGQSPQLLIYSASKLAAGVPDRFSGSGSGTDFTLKISRVEAEDVGVYYCQQTNRYSNPDIYNVFGQGTKVEIKRGGGGSGGGGSGGGGSGGGGSEVQLVESGGGLVQPGGSLRLSCAASGIDFNSNYYMCWVRQAPGKGLEWVSCIYVGSHVNTYYANWAKGRFTISRDNSKNTLYLQMNSLRAEDTAVYYCATSGSSVLYFKFWGQGTLVTVSS"
assay_value = 10.63

[[record]]
binder = "Vκ3/VH2 consensus (uncapped), human IL23R specific scFv (scFv, scFv VL-linker-VH, made in E. coli; Vκ framework IV (uncapped, full consensus); also called Vκ3VH2 uncapped) scFv: DIVLTQSPATLSLSPGERATLSCQASENIYSFLAWYQQKPGQAPRLLIYSASKLAAGVPARFSGSGSGTDFTLTISSLEPEDFAVYYCQQTNRYSNPDIYNVFGQGTKVEIKRGGGGSGGGGSGGGGSGGGGSQVQLKESGPALVKPTQTLTLTCTFSGIDFNSNYYMCWIRQPPGKALEWLACIYVGSHVNTYYANWAKGRLTISKDTSKNQVVLTMTNMDPVDTATYYCATSGSSVLYFKFWGQGTLVTVSS"
assay_value = 9.34

[[record]]
binder = "Vκ3/VH1B consensus λ-capped, human IL23R specific scFv (scFv, scFv VL-linker-VH, made in E. coli; also called Vκ3VH1B capped) scFv: DIVLTQSPATLSLSPGERATLSCQASENIYSFLAWYQQKPGQAPRLLIYSASKLAAGVPARFSGSGSGTDFTLTISSLEPEDFAVYYCQQTNRYSNPDIYNVFGGGTKLTVLGGGGGSGGGGSGGGGSGGGGSQVQLVQSGAEVKKPGASVKVSCKASGIDFNSNYYMCWVRQAPGQGLEWMGCIYVGSHVNTYYANWAKGRVTMTRDTSISTAYMELSSLRSEDTAVYYCATSGSSVLYFKFWGQGTLVTVSS"
assay_value = 9.74

[[record]]
binder = "Vκ1/VH3 consensus λ-capped, human IL23R specific scFv (scFv, scFv VL-linker-VH, made in E. coli; also called Vκ1VH3 capped) scFv: DIQMTQSPSSLSASVGDRVTITCQASENIYSFLAWYQQKPGKAPKLLIYSASKLAAGVPSRFSGSGSGTDFTLTISSLQPEDFATYYCQQTNRYSNPDIYNVFGGGTKLTVLGGGGGSGGGGSGGGGSGGGGSEVQLVESGGGLVQPGGSLRLSCAASGIDFNSNYYMCWVRQAPGKGLEWVSCIYVGSHVNTYYANWAKGRFTISRDNSKNTLYLQMNSLRAEDTAVYYCATSGSSVLYFKFWGQGTLVTVSS"
assay_value = 10.86

[[record]]
binder = "Vκ2/VH4 consensus (uncapped), human IL23R specific scFv (scFv, scFv VL-linker-VH, made in E. coli; Vκ framework IV (uncapped, full consensus); also called Vκ2VH4 uncapped) scFv: DIVMTQSPLSLPVTPGEPASISCQASENIYSFLAWYLQKPGQSPQLLIYSASKLAAGVPDRFSGSGSGTDFTLKISRVEAEDVGVYYCQQTNRYSNPDIYNVFGQGTKVEIKRGGGGSGGGGSGGGGSGGGGSQVQLQESGPGLVKPSETLSLTCTVSGIDFNSNYYMCWIRQPPGKGLEWIGCIYVGSHVNTYYANWAKGRVTISVDTSKNQFSLKLSSVTAADTAVYYCATSGSSVLYFKFWGQGTLVTVSS"
assay_value = 9.90

[[record]]
binder = "Vκ3/VH5 consensus λ-capped, human IL23R specific scFv (scFv, scFv VL-linker-VH, made in E. coli; also called Vκ3VH5 capped) scFv: DIVLTQSPATLSLSPGERATLSCQASENIYSFLAWYQQKPGQAPRLLIYSASKLAAGVPARFSGSGSGTDFTLTISSLEPEDFAVYYCQQTNRYSNPDIYNVFGGGTKLTVLGGGGGSGGGGSGGGGSGGGGSEVQLVQSGAEVKKPGESLKISCKGSGIDFNSNYYMCWVRQMPGKGLEWMGCIYVGSHVNTYYANWAKGQVTISADKSISTAYLQWSSLKASDTAMYYCATSGSSVLYFKFWGQGTLVTVSS"
assay_value = 9.06

[[record]]
binder = "Vκ2/VH4 consensus λ-capped, human IL23R specific scFv (scFv, scFv VL-linker-VH, made in E. coli; also called Vκ2VH4 capped) scFv: DIVMTQSPLSLPVTPGEPASISCQASENIYSFLAWYLQKPGQSPQLLIYSASKLAAGVPDRFSGSGSGTDFTLKISRVEAEDVGVYYCQQTNRYSNPDIYNVFGGGTKLTVLGGGGGSGGGGSGGGGSGGGGSQVQLQESGPGLVKPSETLSLTCTVSGIDFNSNYYMCWIRQPPGKGLEWIGCIYVGSHVNTYYANWAKGRVTISVDTSKNQFSLKLSSVTAADTAVYYCATSGSSVLYFKFWGQGTLVTVSS"
assay_value = 10.32

[[record]]
binder = "Vκ3/VH4 consensus (uncapped), human IL23R specific scFv (scFv, scFv VL-linker-VH, made in E. coli; Vκ framework IV (uncapped, full consensus); also called Vκ3VH4 uncapped) scFv: DIVLTQSPATLSLSPGERATLSCQASENIYSFLAWYQQKPGQAPRLLIYSASKLAAGVPARFSGSGSGTDFTLTISSLEPEDFAVYYCQQTNRYSNPDIYNVFGQGTKVEIKRGGGGSGGGGSGGGGSGGGGSQVQLQESGPGLVKPSETLSLTCTVSGIDFNSNYYMCWIRQPPGKGLEWIGCIYVGSHVNTYYANWAKGRVTISVDTSKNQFSLKLSSVTAADTAVYYCATSGSSVLYFKFWGQGTLVTVSS"
assay_value = 9.86

[[record]]
binder = "Vκ2/VH5 consensus λ-capped, human IL23R specific scFv (scFv, scFv VL-linker-VH, made in E. coli; also called Vκ2VH5 capped) scFv: DIVMTQSPLSLPVTPGEPASISCQASENIYSFLAWYLQKPGQSPQLLIYSASKLAAGVPDRFSGSGSGTDFTLKISRVEAEDVGVYYCQQTNRYSNPDIYNVFGGGTKLTVLGGGGGSGGGGSGGGGSGGGGSEVQLVQSGAEVKKPGESLKISCKGSGIDFNSNYYMCWVRQMPGKGLEWMGCIYVGSHVNTYYANWAKGQVTISADKSISTAYLQWSSLKASDTAMYYCATSGSSVLYFKFWGQGTLVTVSS"
assay_value = 9.32

